These measurements were taken from the domain aggregation screens of Martell et al. (2025).

METHOD NOTES: soluble fraction after stress (log2 fold change); higher = more stays soluble; pooled small domains, quantitative proteomics
CONDITION SUMMARY: stress: 50 degC
MEASUREMENT TYPE: soluble fraction (log2)
I'd appreciate a reply containing only the number, no unit.

Sample records with soluble fraction (log2):
>>> recorded_measurement("HMTIGKRIKRRRIELKMSIDSLARTIGKDRSTVYRYESGAIDKVSSDVLAKLATALNTTPAYLIGL")
-3.27
>>> recorded_measurement("HMKIIDDIQEFAGVTKTQNTFFHIFNHLHQNGKQLILTSDRAPVMLQGMEERLLTRFKWGLVAELE")
0.257
>>> recorded_measurement("HMRDYDFGNLLYKLRIESGYTQKDIADMLGVTDKAVSKWENGIAKPTTNNIKLLSTIYNVSVEELLNG")
-0.254
>>> recorded_measurement("HMSEQGVITAKFASIVGNQNIQLVMFPDSVYLKGQVSSEEEKKRAETVASSLIQDRKIVNLIEFE")
-0.0169
>>> recorded_measurement("HMETVMYLRQIKRPQGIYLAIQESYYDSSKKQSRTRTIESIGYLDNLRKEYEDPIAFFSQKAAAMTSEKKK")
-1.51
>>> recorded_measurement("HMDHSSLIKKLRLERGLSQKKLAQGISQRSTLASFENNATKISYNILIQYLDRMNVTLEEYQFMLDGNNL")
-2.06

Ask | Bench note: what soluble fraction (log2) did `HMENVALYIRLKSMASVYDDVHGYNIEWIKSMIGLSIDIEKLRTVLEDVSWITKVEEDVYSFSKNAKPFE` show?
Reply | -4.31

Ask | Bench note: what soluble fraction (log2) did `HMREEIESVYKTLAVTEIPYIARGNSARLGSGIQTVYDFYRMEGMQVSKILGRNGSVLWLELHG` show?
Reply | 0.126

---

METHOD NOTES: soluble fraction after stress (log2 fold change); higher = more stays soluble; pooled small domains, quantitative proteomics
CONDITION SUMMARY: stress: 50 degC
# soluble fraction (log2) listing for each entry below
I'd appreciate a reply containing only the number, no unit.

Sample records with soluble fraction (log2):
>>> recorded_measurement("HMELSAQEIGRRLRIARENADIRQDDAAQVIGMSRPTLVSIEKGVRRVRIQEIQMLARHYGVSVNALLR")
-2.14
>>> recorded_measurement("HMPKNRTDYVQDVLKSLGRPAHYKEITQIINAMLPKEAQYSAKSIQVVLGSSPLFIRVGTGTYALVE")
-0.679
>>> recorded_measurement("HMDRENNITAGREILEKELSRLALNMKMVNLQDYAARFNVKHSDDILAGIGAGDIRPAHIVNAIAEKLT")
0.144
>>> recorded_measurement("HMKPSKTVYTTANLNLRNGASMSAAVYTSVSRGTALATTGRTTSGWTQITHRGRTLWASSKYLTTTTPP")
-2.68
>>> recorded_measurement("HMSAPGYRAVYPGMLESERQTAYELLSSSGFDVKINTSSGELEVTTDRYHEARMVMASQNIPK")
0.0432

In the following, a different sequence is considered.
Ask | Bench note: what soluble fraction (log2) did `HMPGRPSRISDAVKDQIDHDLRKNPRDLGYSQNLWDGKLLSHHLKERYQITLGIRQAQRLFHQLGFRQR` show?
Reply | -0.0323

---

METHOD NOTES: soluble fraction after stress (log2 fold change); higher = more stays soluble; pooled small domains, quantitative proteomics
CONDITION SUMMARY: stress: 50 degC
MEASUREMENT TYPE: soluble fraction (log2)
I'd appreciate a reply containing only the number, no unit.

Sample records with soluble fraction (log2):
>>> recorded_measurement("HMTSKVTVLAVNGRITVSGKEQDETVSVYDTGGRLLYQGESDVINVPRKAMYIVTVSRKSYKVIV")
-0.941
>>> recorded_measurement("HMLLSEPSVLKFNDDNSYEIVSGFLTEYKDKIVKIERRYKKATVKITVAGEEKEIKVSFVEDTE")
-0.161

Ask | Bench note: what soluble fraction (log2) did `HMEEIPYGVISAKAGAAAYDYIKKSIELGIEKKIDGVATAPIQKEAIHMAGISYIGHTEMYQGIT` show?
Reply | 0.0739

Ask | Bench note: what soluble fraction (log2) did `HMSRQAPIGHRIRGRRKDIGMTQNALAKAAGISPSYLNLIEHNRRSIGGGLLMRIAAILDIHPHTL` show?
Reply | -2.23

Ask | Bench note: what soluble fraction (log2) did `HMKRMSKKQLSAVIEKYFSSQPGVTLTLKDIFRNLHLDTHPLKMIALDILEEMSWDDVIMKVSDTSYALNT` show?
Reply | 0.281

Ask | Bench note: what soluble fraction (log2) did `HMEHVVFEVTESGELENNTAVKHVLNSFNNKSLNLAIDDFGTGYSNLRYIRDMMFGIIKIDRLFIKDINES` show?
Reply | -0.018

Ask | Bench note: what soluble fraction (log2) did `HMSEDAVKFRAAVEVENGLAQRNLNKNQAALILGVDRSYFTYIISGKKTPSPDMAKRIGLLLGFDWRVFYA` show?
Reply | -2.03

Ask | Bench note: what soluble fraction (log2) did `HMRHYVLKENNGVIAIYKVNQENEAVFKENTQIQVQYLPEVDLINLKKGIYAIGEEKLNSILEDF` show?
Reply | -0.613
